# Test target: CYP11B2 (Homo sapiens (Human))
# Sequence (P19099 25-503): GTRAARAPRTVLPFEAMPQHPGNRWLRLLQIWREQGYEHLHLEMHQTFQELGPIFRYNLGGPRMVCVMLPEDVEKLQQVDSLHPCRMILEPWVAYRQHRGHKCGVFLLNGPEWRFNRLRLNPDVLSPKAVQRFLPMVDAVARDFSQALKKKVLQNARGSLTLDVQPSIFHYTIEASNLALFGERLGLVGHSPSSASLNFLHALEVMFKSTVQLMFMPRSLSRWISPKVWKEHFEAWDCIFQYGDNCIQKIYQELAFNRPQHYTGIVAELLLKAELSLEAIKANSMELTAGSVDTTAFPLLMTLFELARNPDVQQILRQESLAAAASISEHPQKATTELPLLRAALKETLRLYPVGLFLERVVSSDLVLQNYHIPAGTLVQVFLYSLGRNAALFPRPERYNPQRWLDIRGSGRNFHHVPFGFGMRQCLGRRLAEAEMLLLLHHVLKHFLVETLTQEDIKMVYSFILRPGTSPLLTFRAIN
# Protocol description: G-402 cellular enzyme assay, human CYP11B2 (aldosterone release, HTRF)
# Test parameters: G-402 cells expressing human CYP11B2; 1 μM Deoxycorticosterone
EC50 under 500 nM gets Yes, anything at or over 500 nM gets No.

Solved cases below.
# Molecule, Test target, Label
rows = [
    ("CNC(=O)CC1CCc2cncc(-c3ccc(C(F)(F)F)c(F)c3)c21 (racemic) [Example 12]", "CYP11B2 (Homo sapiens (Human))", "Yes"),
    ("CC(C)C1(O)CCc2cncc(-c3ccc(C(F)(F)F)cc3F)c21 (racemic) [Example 7]", "CYP11B2 (Homo sapiens (Human))", "No"),
    ("NC1CCc2cncc(-c3ccc(C(F)(F)F)c(F)c3)c21 (racemic) [Example 1]", "CYP11B2 (Homo sapiens (Human))", "Yes"),
    ("CCOC(=O)CC1CCc2cncc(-c3ccc(C(F)(F)F)c(F)c3)c21 (racemic) [Example 11]", "CYP11B2 (Homo sapiens (Human))", "Yes"),
    ("CN(C(=O)CC1CCc2cncc(-c3ccc(C(F)(F)F)cc3F)c21)C1CC1 (racemic) [Example 22]", "CYP11B2 (Homo sapiens (Human))", "No"),
]

# input In plain terms, does CC(C)N(C)C(=O)CC1CCc2cncc(-c3ccc(C(F)(F)F)cc3F)c21 (racemic) [Example 21] come in under 500 nM for EC50?
# output Yes

# input Is EC50 strictly under 500 nM for the entry CCCNC(=O)CC1CCc2cncc(-c3ccc(C(F)(F)F)c(F)c3)c21 (racemic) [Example 14] ?
# output No

# input # check: EC50 < 500 nM for O=C(CC1CCc2cncc(-c3ccc(C(F)(F)F)c(F)c3)c21)Nc1ccon1 (racemic) [Example 17]
# output Yes

# input Identify whether the molecule O=C(CC1CCc2cncc(-c3ccc(C(F)(F)F)cc3F)c21)N1CCCC1 (racemic) [Example 19] records EC50 below 500 nM.
# output Yes

# input Strictly below 500 nM in EC50? OC1(c2ccccc2)CCc2cncc(-c3ccc(C(F)(F)F)cc3F)c21 (single isomer, unassigned; (-)) [Example 10]
# output Yes

# input is_below(EC50, 500 nM) for CCN(C)C(=O)CC1CCc2cncc(-c3ccc(C(F)(F)F)cc3F)c21 (racemic) [Example 20] ?
# output Yes

# input Please determine if CC1(O)CCc2cncc(-c3ccc(C(F)(F)F)cc3F)c21 (racemic) [Example 6] is below 500 nM in terms of EC50.
# output No

# input Please let me know if O=C(CC1CCc2cncc(-c3ccc(C(F)(F)F)c(F)c3)c21)NCC1CC1 (racemic) [Example 13] shows EC50 below 500 nM.
# output Yes

# input hey, is EC50 for C[C@H]1CCCN1C(=O)CC1CCc2cncc(-c3ccc(C(F)(F)F)cc3F)c21 (mixture of isomers) [Example 24] lower than 500 nM or not?
# output Yes

###

Catalogue of compounds with associated EC50
# Test target: human CYP11B1 (Homo sapiens (Human))
# Sequence (P15538 25-503): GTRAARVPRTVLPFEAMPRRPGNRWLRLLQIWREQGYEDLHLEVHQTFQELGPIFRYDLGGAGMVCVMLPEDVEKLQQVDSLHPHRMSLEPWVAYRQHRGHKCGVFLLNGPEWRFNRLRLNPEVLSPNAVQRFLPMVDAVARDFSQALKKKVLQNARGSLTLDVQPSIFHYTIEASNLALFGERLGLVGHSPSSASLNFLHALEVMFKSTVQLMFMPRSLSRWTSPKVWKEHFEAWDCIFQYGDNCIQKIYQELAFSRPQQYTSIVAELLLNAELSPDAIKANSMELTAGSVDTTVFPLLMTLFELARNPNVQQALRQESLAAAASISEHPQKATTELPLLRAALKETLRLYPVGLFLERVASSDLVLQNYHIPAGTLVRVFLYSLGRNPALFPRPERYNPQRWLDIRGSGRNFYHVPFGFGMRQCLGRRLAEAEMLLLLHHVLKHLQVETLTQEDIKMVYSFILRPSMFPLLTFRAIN
# Protocol description: G-402 cellular enzyme assay, human CYP11B1 (cortisol release, HTRF)
# Test parameters: G-402 cells expressing human CYP11B1; 1 μM Deoxycortisol
Only the number, expressed in nM, is required.

# Compound, Test target, Measure name, Unit descriptor, Result
records = [
    ("O=C(CC1CCc2cncc(-c3ccc(C(F)(F)F)cc3F)c21)N1CCCC1 (racemic) [Example 19]", "human CYP11B1 (Homo sapiens (Human))", "EC50", "nM", 8470),
    ("CCCNC(=O)CC1CCc2cncc(-c3ccc(C(F)(F)F)c(F)c3)c21 (racemic) [Example 14]", "human CYP11B1 (Homo sapiens (Human))", "EC50", "nM", 2600),
    ("CC1(O)CCc2cncc(-c3ccc(C(F)(F)F)c(F)c3)c21 (racemic) [Example 3]", "human CYP11B1 (Homo sapiens (Human))", "EC50", "nM", 2340),
    ("OC1(c2ccccc2)CCc2cncc(-c3ccc(C(F)(F)F)c(F)c3)c21 (racemic) [Example 4]", "human CYP11B1 (Homo sapiens (Human))", "EC50", "nM", 1960),
]

Next up:
# input Can you share its EC50? I mean this compound: CC(C)C1(O)CCc2cncc(-c3ccc(C(F)(F)F)cc3F)c21 (racemic) [Example 7]
# output 14400
